Entry source: ChEMBL document CHEMBL1268971

Can you tell me solubility for the items I'm about to list?
experiment: Solubility of the compound at pH 7; assay type: physicochemical; conditions: buffer
Number only, in µM; omit the unit.

Noted for CCn1nc(C(N)=O)c2c1-c1nc(Nc3cc(N4CCN(C)CC4)ccc3OC(F)(F)F)ncc1CC2 : its solubility reads 21

Noted for CN1CCCC1CCNc1ccc(OC(F)(F)F)c(Nc2ncc3c(n2)-c2c(c(C(N)=O)nn2C)CC3)c1 (stereo not given) : its solubility reads 157

Noted for COCCn1nc(C(N)=O)c2c1-c1nc(Nc3cc(N4CCN(C)CC4)ccc3OC(F)(F)F)ncc1CC2 : its solubility reads 136

Noted for CN1CCCN(c2ccc(OC(F)(F)F)c(Nc3ncc4c(n3)-c3c(c(C(N)=O)nn3C)CC4)c2)CC1 : its solubility reads 95

----------
Can you tell me CLint scaled for the items I'm about to list?
assay: Intrinsic clearance in human liver microsomes; format: ADME, Microsome
Number only, in mL/min/kg; omit the unit.

Noted for CN1CCN(c2ccc(OC(F)(F)F)c(Nc3ncc4c(n3)-c3c(c(C(N)=O)nn3C)CC4)c2)CC1 : its CLint scaled reads 25.7

Noted for Cn1nc(C(N)=O)c2c1-c1nc(Nc3cc(N4CCNCC4)ccc3OC(F)(F)F)ncc1CC2 : its CLint scaled reads 6.9

Noted for C=Cn1nc(C(N)=O)c2c1-c1nc(Nc3cc(N4CCN(C)CC4)ccc3OC(F)(F)F)ncc1CC2 : its CLint scaled reads 28.8

Noted for CN1CCN(c2ccc(OC(F)(F)F)c(Nc3ncc4c(n3)-c3c(c(C(N)=O)nn3CCF)CC4)c2)CC1 : its CLint scaled reads 56.1

----------
Can you tell me Papp for the items I'm about to list?
experiment: Permeability of the compound by PAMPA; type: ADME
Number only, in ×10⁻⁶ cm/s; omit the unit.

Noted for Cn1nc(C(N)=O)c2c1-c1nc(Nc3cc(N4CCNCC4)ccc3OC(F)(F)F)ncc1CC2 : its Papp reads 7.22

Noted for CN1CCN(c2ccc(OC(F)(F)F)c(Nc3ncc4c(n3)-c3c(c(C(N)=O)nn3C)CC4)c2)CC1 : its Papp reads 50

Noted for C=Cn1nc(C(N)=O)c2c1-c1nc(Nc3cc(N4CCN(C)CC4)ccc3OC(F)(F)F)ncc1CC2 : its Papp reads 19.6

Noted for CN1CCN(c2ccc(OC(F)(F)F)c(Nc3ncc4c(n3)-c3c(c(C(N)=O)nn3CCF)CC4)c2)CC1 : its Papp reads 50

----------
Reported IC50 values, Serine/threonine-protein kinase PLK2 (Homo sapiens, UniProt Q9NYY3).

// compound Cn1nc(C(N)=O)c2c1-c1nc(Nc3cc(N4CC[N+](C)([O-])CC4)ccc3OC(F)(F)F)ncc1CC2 , assay Serine/threonine-protein kinase PLK2 (Homo sapiens, UniProt Q9NYY3), IC50 value: > 10 µM

// compound C=Cn1nc(C(N)=O)c2c1-c1nc(Nc3cc(N4CCN(C)CC4)ccc3OC(F)(F)F)ncc1CC2 , assay Serine/threonine-protein kinase PLK2 (Homo sapiens, UniProt Q9NYY3), IC50 value: 0.335 µM

// compound CN1CCN(c2ccc(OC(F)(F)F)c(Nc3ncc4c(n3)-c3c(c(C(N)=O)nn3CCF)CC4)c2)CC1 , assay Serine/threonine-protein kinase PLK2 (Homo sapiens, UniProt Q9NYY3), IC50 value: > 10 µM

// compound CN1CCN(c2ccc(OC(F)(F)F)c(Nc3ncc4c(n3)-c3c(c(C(N)=O)nn3C)CC4)c2)CC1 , assay Serine/threonine-protein kinase PLK2 (Homo sapiens, UniProt Q9NYY3), IC50 value: 3.52 µM

// compound Cn1nc(C(N)=O)c2c1-c1nc(Nc3cc(N4CCN(C(=O)OC(C)(C)C)CC4)ccc3OC(F)(F)F)ncc1CC2 , assay Serine/threonine-protein kinase PLK2 (Homo sapiens, UniProt Q9NYY3), IC50 value: 0.768 µM

// compound Cn1nc(C(N)=O)c2c1-c1nc(Nc3cc(N4CCNCC4)ccc3OC(F)(F)F)ncc1CC2 , assay Serine/threonine-protein kinase PLK2 (Homo sapiens, UniProt Q9NYY3), IC50 value: > 10 µM

// compound Cn1nc(C(N)=O)c2c1-c1nc(Nc3cc(N4CCC(N5CCCC5)CC4)ccc3OC(F)(F)F)ncc1CC2 , assay Serine/threonine-protein kinase PLK2 (Homo sapiens, UniProt Q9NYY3), IC50 value: > 10 µM

// compound CN1C(C)(C)CC(Nc2ccc(OC(F)(F)F)c(Nc3ncc4c(n3)-c3c(c(C(N)=O)nn3C)CC4)c2)CC1(C)C , assay Serine/threonine-protein kinase PLK2 (Homo sapiens, UniProt Q9NYY3), IC50 value: > 10 µM

// compound Cn1nc(C(N)=O)c2c1-c1nc(Nc3cc(N4CCN(C(=O)N5CCNCC5)CC4)ccc3OC(F)(F)F)ncc1CC2 , assay Serine/threonine-protein kinase PLK2 (Homo sapiens, UniProt Q9NYY3), IC50 value: 0.19 µM

// compound CN1CCCN(c2ccc(OC(F)(F)F)c(Nc3ncc4c(n3)-c3c(c(C(N)=O)nn3C)CC4)c2)CC1 , assay Serine/threonine-protein kinase PLK2 (Homo sapiens, UniProt Q9NYY3), IC50 value: > 10 µM

// compound Cn1nc(C(N)=O)c2c1-c1nc(Nc3cc(N)ccc3OC(F)(F)F)ncc1CC2 , assay Serine/threonine-protein kinase PLK2 (Homo sapiens, UniProt Q9NYY3), IC50 value: 1.28 µM

// compound CN1CCN(c2ccc(OC(F)(F)F)c(Nc3ncc4c(n3)-c3[nH]nc(C(N)=O)c3CC4)c2)CC1 , assay Serine/threonine-protein kinase PLK2 (Homo sapiens, UniProt Q9NYY3), IC50 value: > 10 µM

// compound CCN1CCN(c2ccc(OC(F)(F)F)c(Nc3ncc4c(n3)-c3c(c(C(N)=O)nn3C)CC4)c2)CC1 , assay Serine/threonine-protein kinase PLK2 (Homo sapiens, UniProt Q9NYY3), IC50 value: 3.39 µM
